Experiment: Half life in mouse microsomes at 1 uM incubated for 5 to 60 mins in presence of NADPH by LC-MS/MS analysis
Experimental readout: half-life at 1 µM
The reply must contain the numeric value and, after it, the unit.

Please give the measured half-life at 1 µM for this compound: O=[N+]([O-])c1ccc(CNc2nc(NCc3cccc(C(F)(F)F)c3)nc3[nH]cnc23)cc1
9 min

* * *

Target: Inositol hexakisphosphate kinase 1 (Homo sapiens, UniProt Q92551)
Assay: Binding affinity to IP6K1 (unknown origin) assessed as change in melting temperature at 11.1 uM by SYPRO orange dye based assay
Sequence (Q92551 whole entry, looked up): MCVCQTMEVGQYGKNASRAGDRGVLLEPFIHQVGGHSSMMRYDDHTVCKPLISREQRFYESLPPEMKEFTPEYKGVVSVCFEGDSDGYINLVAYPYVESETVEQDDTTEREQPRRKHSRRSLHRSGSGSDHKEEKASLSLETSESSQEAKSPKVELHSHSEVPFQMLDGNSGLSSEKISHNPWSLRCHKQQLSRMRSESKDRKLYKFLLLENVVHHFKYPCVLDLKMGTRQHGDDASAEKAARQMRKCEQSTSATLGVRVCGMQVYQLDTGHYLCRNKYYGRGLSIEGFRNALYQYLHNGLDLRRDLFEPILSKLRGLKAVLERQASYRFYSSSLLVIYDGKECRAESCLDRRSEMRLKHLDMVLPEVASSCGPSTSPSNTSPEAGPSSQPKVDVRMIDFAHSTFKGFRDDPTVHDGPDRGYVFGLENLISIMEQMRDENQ
The following molecules are shown together with reported ΔTm values.

Field: example entries. Status: answers known.
> print(dat)
                  compound.structure.string  experimental.readout  test.result
1  O=[N+]([O-])c1ccc(CNc2nc(NCc3cccc(C(F)(F)F)c3)nc3[nH]cnc23)cc1                   ΔTm       1.8 °C
2  COCCNc1nc(NCCc2c[nH]c3ccccc23)nc2[nH]cnc12                   ΔTm       2.4 °C
3  COCCNc1nc(NCCc2c[nH]c3cc(OC)ccc23)nc2[nH]cnc12                   ΔTm       3.6 °C

For COc1ccc2c(CCNc3nc(NCc4ccc(=O)[nH]c4)c4nc[nH]c4n3)c[nH]c2c1 , what is its reported ΔTm?
5.5 °C

* * *

Molecular target: Inositol hexakisphosphate kinase 2 (Homo sapiens)
Sequence (Q9UHH9 whole entry): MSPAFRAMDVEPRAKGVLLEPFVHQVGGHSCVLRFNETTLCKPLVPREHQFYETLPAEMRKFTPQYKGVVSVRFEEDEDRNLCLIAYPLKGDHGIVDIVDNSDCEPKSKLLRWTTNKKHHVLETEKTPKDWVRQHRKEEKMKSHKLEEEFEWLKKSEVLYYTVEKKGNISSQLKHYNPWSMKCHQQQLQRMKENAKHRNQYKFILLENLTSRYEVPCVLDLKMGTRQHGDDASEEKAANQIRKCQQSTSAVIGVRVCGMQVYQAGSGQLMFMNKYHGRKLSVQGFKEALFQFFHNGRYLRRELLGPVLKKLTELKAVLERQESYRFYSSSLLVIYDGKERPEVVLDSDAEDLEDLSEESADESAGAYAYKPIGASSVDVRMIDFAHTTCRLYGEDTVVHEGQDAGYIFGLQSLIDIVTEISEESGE
Experimental readout: Ki (µM)
Numbers only; they are read as µM.

Need Ki of COc1ccc2c(CCNc3nc(NCc4ccc(=O)[nH]c4)c4nc[nH]c4n3)c[nH]c2c1 , thanks.
4.88

* * *

Target: Inositol hexakisphosphate kinase 1 (Homo sapiens, UniProt Q92551)
Test: Inhibition of IP6K1 (unknown origin) incubated for 30 mins using IP6 as substrate in presence of ATP by ADP-Glo reagent based luminescence assay
Conditions: read-out: pIC50 (converted)
Sequence (Q92551 whole entry): as the sequence (Q92551 whole entry, looked up) above
Measured IC50, listed per entry.
Entry rule: numbers only, all in µM.

Below: 4 compounds and their reported IC50.
> print(dat)
                  compound.structure.string                             target.entity  test.result
1  Cc1[nH]c2ccccc2c1CCNc1nc(NCc2ccc(=O)[nH]c2)c2nc[nH]c2n1  Inositol hexakisphosphate kinase 1 (Homo sapiens, UniProt Q92551)         3.02
2  COCCNc1nc(NCCc2c[nH]c3ccc(O)cc23)nc2[nH]cnc12  Inositol hexakisphosphate kinase 1 (Homo sapiens, UniProt Q92551)         31.6
3  O=c1ccc(CNc2nc(NCCc3c[nH]c4ccccc34)nc3[nH]cnc23)c[nH]1  Inositol hexakisphosphate kinase 1 (Homo sapiens, UniProt Q92551)         1.74
4  COCCNc1nc(NCCc2c[nH]c3cc(OC)ccc23)nc2[nH]cnc12  Inositol hexakisphosphate kinase 1 (Homo sapiens, UniProt Q92551)         2.75

Looking for the measured IC50 of COCCNc1nc(NCCc2cn(C)c3ccccc23)nc2nc[nH]c12 , can you help?
31.6

Report IC50 for COCCNc1nc(NCCc2c[nH]c3ccc(OC)cc23)nc2[nH]cnc12 please.
138

Sample COCCNc1nc(NCCCc2c[nH]c3ccccc23)nc2[nH]cnc12 — what was its IC50?
69.2

For COCCNc1nc(NCCc2ccccc2)nc2[nH]cnc12 , what is its reported IC50?
79.4

Could you tell me which IC50 is on file for COCCNc1nc(NCCc2c[nH]c3ccc(Cl)cc23)nc2[nH]cnc12 ?
26.9

Look at this compound and give its reported IC50. N#Cc1ccc(CNc2nc(NCCc3c[nH]c4ccccc34)nc3[nH]cnc23)cc1
46.8

Look up IC50 for this compound: COCCNc1nc(NCCc2ccccc2OC)nc2[nH]cnc12
11.2

Could you share which IC50 value was measured for O=c1cc(CNc2nc(NCCc3c[nH]c4ccccc34)nc3[nH]cnc23)cc[nH]1 ?
10

Form field: reported IC50 of COCCNc1nc(NCCc2c[nH]c3ccccc23)nc2[nH]cnc12
8.32
